The origin of these recorded values is ChEMBL document CHEMBL1201862.

Tested on: MDA-MB-231
Assay: NCI tumour cell line growth inhibition, 48 h
The source made the active and inactive calls. No stated cut-off is given here; in the data, active = GI50 up to about 1.1 µM and inactive = higher. Square brackets hold non-standard residues; d marks the D form. Peptide text beside a SMILES is read from it. pGlu = O=C1CC[CH](C(=O)O)N1
Items are presented alongside their recorded GI50.
RESULT_TYPE: GI50

* CC1=NN(c2cccc(S(=O)(=O)O)c2)C2(C1)C(Cl)C(=O)N2c1nc2ccccc2s1 (centres undefined) | 8.73 µM (inactive)
* NNC(=O)c1ccccc1Nc1ccccc1C(=O)NN | > 100 µM (inactive)
* Cc1ccc([N+](=O)[O-])cc1S(=O)(=O)Nc1ccc(C2=NN(c3ccc([N+](=O)[O-])cc3[N+](=O)[O-])C(c3cccs3)C2)cc1 (centres undefined) | 15 µM (inactive)
* C=CCN1C(=O)/C(=C/c2ccc(C)cc2)NC1=S | 60.1 µM (inactive)
* CCN(CC)c1ccc2cc(C(N)=O)/c(=N/c3ccc(F)cc3)oc2c1 | 14.5 µM (inactive)
* O=C(CSCC(=O)N/N=C\c1cccc([N+](=O)[O-])c1)N/N=C\c1cccc([N+](=O)[O-])c1 | 18.9 µM (inactive)
* CC(C)=CCC[C@]1(C)C=Cc2c(O)c3c(c(CC=C(C)C)c2O1)O[C@]12C(=C[C@@H]4CC1C(C)(C)O[C@@]2(C/C=C(/C)C(=O)O)C4=O)C3=O | 1.07 µM (active)
* CN(C)CCCNC(=O)CCNC(=O)c1cc(NC(=O)c2cc(NC(=O)c3cc(NC(=O)c4nc(NC(=O)CCCNC(=O)c5cc(NC(=O)c6cc(NC(=O)c7cc(NC(=O)c8nccn8C)cn7C)cn6C)cn5C)cn4C)cn3C)cn2C)cn1C | > 100 µM (inactive)
* NS(=O)(=O)c1cccc(NC(=S)NC(=O)Nc2ccc(Cl)c(Cl)c2)c1 | 17.7 µM (inactive)
* CCOC(=O)/C(=N/Nc1ccccc1)N1C(=S)N(C)N=C(C)C=C1S | 43.9 µM (inactive)
* CCOC(=O)c1ncn(CCc2ccc(Cl)cc2)c1C | > 100 µM (inactive)
* COc1cc(/C=C/c2ccc(C)cc2)cc(OC)c1OC | 5 µM (inactive)
* CC(NC(=O)C(Cc1c[nH]cn1)NC(=O)C1CCC(=O)N1)C(N)=O (stereo not drawn) ([pGlu]-His-Ala-NH2; configuration not given here) | > 100 µM (inactive)
* COC(=O)c1ccc2c(c1)C(NC(C)=O)CCc1cc(OC)c(OC)c(OC)c1-2 (centres undefined) | < 0.02 µM (active)
* Oc1cc(O)c2c(c1)OC(c1ccc(O)c(O)c1)C(O)C2c1c(O)cc(O)c2c1OC(c1ccc(O)c(O)c1)C(O)C2 (centres undefined) | > 100 µM (inactive)
* CC(C)(C)c1cc(C(=O)/C=C/c2ccc(C(=O)O)cc2)cc(C(C)(C)C)c1 | 3.87 µM (inactive)
* Cc1cc2nc3c(C#N)c4c(c(Cl)n3c2cc1C)CCC4 | 15.9 µM (inactive)
* CSC(=S)NN=C1CCCC1.CSC(=S)NN=C1CCCC1.[Zn+2] | 17.8 µM (inactive)
* CSC1=C(C(=O)N(COCC[Si](C)(C)C)c2ccccc2Br)CCC(C(C)(C)C)C1 (centres undefined) | 10.3 µM (inactive)
* CC(=O)Nc1ccc(C(=O)NN2C(=O)C(Cl)C2c2ccc(Cl)cc2)cc1 (centres undefined) | 22.1 µM (inactive)
* c1ccc(C(NCC2CCO2)(c2ccccc2)c2ccccc2)cc1 (centres undefined) | 28.3 µM (inactive)
* COc1cc2c(cc1OC)[C@@H](Nc1ccc(C#N)cc1)C1COC(=O)[C@@H]1C2c1cc(OC)c(O)c(OC)c1 (some centres undefined) | 2.36 µM (inactive)
* O=C(Nc1sccc1S(=O)(=O)c1ccc(Cl)cc1)c1ccc(Cl)cc1 | 35.2 µM (inactive)
* CCN(CC)c1ccc(C2Nc3ccc4ccccc4c3C3=C2C(=O)CCC3)cc1 (centres undefined) | 11.7 µM (inactive)
* O=C(CC(C(=O)c1cccs1)c1cccs1)c1ccsc1 (centres undefined) | 38 µM (inactive)
* CNC(=S)NN=C1NCCCCN1 | > 100 µM (inactive)
* CC1=C2O[C@]3(O)C=C2C(=C(O)C1=O)[C@@H]1O[C@H](CC[C@H](C)/C=C(\C)C[C@@H](C)C[C@@H]3C)[C@H](C)[C@H](O)[C@H]1C [KENDOMYCIN] | 0.151 µM (active)
* COc1ccc(N2C(=O)c3c4c(c5c([nH]c6ncccc65)c3C2=O)CCC(C(C)(C)C)C4)cc1 (centres undefined) | > 100 µM (inactive)
* C=CCOCC1C2CCC3(OCCO3)C21 (centres undefined) | > 100 µM (inactive)
* CC(=O)Nc1ccc(C(O)/C(=N/N)c2nc3ccc(Cl)cc3nc2O)cc1 (centres undefined) | > 100 µM (inactive)
* COc1ccc(OCc2ccc3nc(-c4ccccc4)c(Cl)nc3c2)cc1 | 11.7 µM (inactive)
* CC(C)[Si](OC12CCC(CC1O)CC2C(=O)O)(C(C)C)C(C)C (centres undefined) | 14.7 µM (inactive)
* CC(O)C1(CNc2cc(Cl)nc(N)n2)CCCC1 (centres undefined) | > 100 µM (inactive)
* COc1c(C)c2nc3ccccc3nc2c2c(O)ccnc12 | > 100 µM (inactive)
* Brc1cccc[n+]1-c1ccc2cc(-[n+]3ccccc3Br)ccc2c1 | 24.2 µM (inactive)
* Ic1cccc(/C=C/CN2CCN(CCOC(c3ccccc3)c3ccccc3)CC2)c1 | 14 µM (inactive)
* Cn1c(-c2cccc(N)c2)[n+](C)c2ccccc21 | > 100 µM (inactive)
* Cc1ccc(C2(c3ccc(F)cc3)OC(=O)c3ccccc32)c(O)c1 (centres undefined) | 17.9 µM (inactive)
* COCCOc1nc(-c2ccccc2)nc2ccccc12 | 31 µM (inactive)
